Form field: IC50 (one value per entry).
# Test system: KYSE70 cells
# PROTOCOL DESCRIPTION: MTT assay for cell proliferation and cytotoxicity
# Assay type: cell-based
# EXPERIMENTAL CONTEXT: Homo sapiens, KYSE-70; MTT, 48 h, mean ± SD; read-out: IC50 KYSE70
Express it in µM; write the number only.

Would you please look over these solved cases?
COCCOc1cc2ncnc(Nc3cccc(-c4cn(Cc5cc(Br)cc(Br)c5)nn4)c3)c2cc1OCCOC [Compound 3d] | 5.43
COCCOc1cc2ncnc(Nc3cccc(-c4cn(Cc5ccccc5)nn4)c3)c2cc1OCCOC [Compound 3a] | 5.85
COCCOc1cc2ncnc(Nc3cccc(-c4cn(-c5ccccc5Br)nn4)c3)c2cc1OCCOC [Compound 3i] | 36.1
COCCOc1cc2ncnc(Nc3cccc(-c4cn(-c5cccc(OC)c5)nn4)c3)c2cc1OCCOC [Compound 3e] | 12.6

q: Form field: reported IC50 of COCCOc1cc2ncnc(Nc3cccc(-c4cn(-c5ccc(C)cc5)nn4)c3)c2cc1OCCOC [Compound 3l]
a: 11.1

q: Form field: reported IC50 of COCCOc1cc2ncnc(Nc3cccc(-c4cn(-c5ccc(F)cc5)nn4)c3)c2cc1OCCOC [Compound 3g]
a: 5.46

q: Form field: reported IC50 of COCCOc1cc2ncnc(Nc3cccc(-c4cn(Cc5ccccc5Br)nn4)c3)c2cc1OCCOC [Compound 3c]
a: 5.35
